- Experiment Notes: Selectivity index, ratio of CC50 for human HepG2 cells to IC50 for axenic amastigote stage of Leishmania infantum
- Format: toxicity
- Condition Set: read-out: Ratio CC50/IC50
Exercise: state measured selectivity ratio for each of the compounds provided.

In [3]: df
Out[3]:
                                   compound  experimental_result
0  O=[N+]([O-])c1c(CS(=O)(=O)c2ccccc2)nc2c(Br)cc(Br)cn12                > 7.1
1  O=[N+]([O-])c1c(CS(=O)(=O)c2ccccc2)nc2c(-c3ccncc3)cc(Cl)cn12               > 16.7

Parameters: items (list). Returns: selectivity ratio for each item.
1. CCN(CC)c1ccc(-c2cc(Cl)cn3c([N+](=O)[O-])c(CS(=O)(=O)c4ccccc4)nc23)cc1
2. O=[N+]([O-])c1c(CS(=O)(=O)c2ccccc2)nc2c(-c3ccc(O)cc3)cc(Cl)cn12
3. O=[N+]([O-])c1c(CS(=O)(=O)c2ccccc2)nc2c(-c3cccnc3)cc(Cl)cn12
4. O=[N+]([O-])c1c(CS(=O)(=O)c2ccccc2)nc2c(-c3ccccc3)cc(Cl)cn12
5. O=[N+]([O-])c1c(CS(=O)(=O)c2ccccc2)nc2c(-c3ccc(F)cc3)cc(Cl)cn12
6. CSc1ccc(OCc2ncc([N+](=O)[O-])n2C)cc1 [FEXINIDAZOLE]
7. O=[N+]([O-])c1c(CS(=O)(=O)c2ccccc2)nc2c(-c3ccccc3CO)cc(Cl)cn12

Return:
> 6.2
> 4.2
> 15.7
> 10
> 12
> 58.8
< 8.8

Measured values drawn from ChEMBL document CHEMBL4270592 for this set.
